# system: SIK3 (Homo sapiens)
# Construct: purchased SignalChem S12-11G-100
# Sequence (Q9Y2K2 whole entry): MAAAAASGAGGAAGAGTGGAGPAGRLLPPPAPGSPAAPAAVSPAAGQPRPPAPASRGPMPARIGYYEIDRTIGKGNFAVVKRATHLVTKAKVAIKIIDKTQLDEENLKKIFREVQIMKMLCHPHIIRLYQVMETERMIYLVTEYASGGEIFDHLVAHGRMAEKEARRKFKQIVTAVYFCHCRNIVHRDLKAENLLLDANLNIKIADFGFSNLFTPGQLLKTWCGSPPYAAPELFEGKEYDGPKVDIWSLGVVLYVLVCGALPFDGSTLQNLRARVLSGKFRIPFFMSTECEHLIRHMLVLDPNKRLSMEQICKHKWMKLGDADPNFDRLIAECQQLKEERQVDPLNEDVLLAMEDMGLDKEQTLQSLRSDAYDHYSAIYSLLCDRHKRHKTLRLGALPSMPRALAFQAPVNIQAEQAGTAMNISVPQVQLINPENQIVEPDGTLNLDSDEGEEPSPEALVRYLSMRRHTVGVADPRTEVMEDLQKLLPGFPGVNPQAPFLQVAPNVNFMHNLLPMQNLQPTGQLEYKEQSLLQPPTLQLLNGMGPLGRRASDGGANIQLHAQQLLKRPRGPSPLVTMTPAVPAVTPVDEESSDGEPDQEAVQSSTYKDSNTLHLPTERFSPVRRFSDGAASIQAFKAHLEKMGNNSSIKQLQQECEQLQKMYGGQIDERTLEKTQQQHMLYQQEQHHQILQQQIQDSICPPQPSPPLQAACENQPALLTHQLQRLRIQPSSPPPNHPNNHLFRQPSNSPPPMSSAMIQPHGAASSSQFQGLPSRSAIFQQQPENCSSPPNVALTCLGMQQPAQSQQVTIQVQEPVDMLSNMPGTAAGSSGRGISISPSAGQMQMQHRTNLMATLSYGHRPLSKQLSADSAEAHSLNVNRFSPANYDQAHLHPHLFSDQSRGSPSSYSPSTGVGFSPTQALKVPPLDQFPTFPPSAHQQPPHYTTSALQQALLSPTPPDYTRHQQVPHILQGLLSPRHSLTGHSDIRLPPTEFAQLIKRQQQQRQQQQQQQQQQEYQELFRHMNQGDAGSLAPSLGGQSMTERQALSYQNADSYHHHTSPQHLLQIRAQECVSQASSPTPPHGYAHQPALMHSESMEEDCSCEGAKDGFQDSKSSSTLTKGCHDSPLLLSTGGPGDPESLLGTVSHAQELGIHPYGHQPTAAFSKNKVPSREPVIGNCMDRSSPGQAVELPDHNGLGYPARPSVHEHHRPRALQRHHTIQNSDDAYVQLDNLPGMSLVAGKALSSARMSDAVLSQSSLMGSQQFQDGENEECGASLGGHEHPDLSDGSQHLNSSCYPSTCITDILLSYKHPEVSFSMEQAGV
# test-description: biochemical
pIC50: −log10 of the molar value.
Items are presented alongside their recorded pIC50.

# example entries with known answers
                                   compound  result_type   test_result
0  CCNC(=O)c1c(OC)cc(-c2cnn3cc(-c4cnn(CC)c4)cnc23)cc1OC        pIC50  7.00 to 8.00
1  COc1cc(-n2cnc3cc(-c4cnn(C)c4)ccc32)cc(OC)c1C(=O)N(C)CC#N        pIC50  7.00 to 8.00
2  COc1cc(-n2cnc3cc(-c4cnn(C)c4)ccc32)cc(OC)c1C(=O)N1CC(O)C1        pIC50  6.30 to 7.00

Query block: Recall the recorded pIC50 for COc1cc(-c2cnc3cc(-c4cnn(C(C)C(=O)O)c4)ccn23)cc(OC)c1C(=O)NCC(F)(F)F (stereo not shown) with SIK3 (Homo sapiens) and state it.
Result block: 8.00 to 11.00
